The reported numbers originate from the supplement of paper PMC10567573.

Assignment: determine reported protein stability index for the given variants.
B1: GNB5 (parent)
chain: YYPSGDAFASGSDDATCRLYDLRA

- Variants of: B1
- Test: protein stability index of a GFP-peptide fusion (GPS, HEK-293T) (PSI 1-6); higher = more stable;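 note: lentivirally expressed fusions sorted by FACS into six bins by GFP to DsRed ratio, PSI derived from sequencing read proportions per bin multiplied by bin number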
- Settings: c terminus: a fixed tail appended
One number for each entry.

Worked set:
A15R; 2.24
A9N; 2.65
C17A; 2.42
R23N; 2.33
D6Y; 1.97
S10A; 2.25
R23D; 3.01
D6A; 2.31

Please state, for each entry, its recorded protein stability index.
1. C17T
2. Y2Q
3. G11C
4. P3G
5. A9D
6. G11F
7. R18H
8. L19V

[2.61, 2.4, 2.09, 3.33, 3.6, 1.99, 3.23, 2.56]
